Read-out: Interferon-gamma inducible Protein 10 (IP10), CXCL10 (gene 3627)
Assay remarks: BSK_KF3CT_IP10: BioMAP Diversity Plus: KF3CT Assay for Interferon-gamma inducible Protein 10 (IP10) Biomarker Activity (AID 2283068)
Test settings: primary human keratinocytes with fibroblasts; actives raise or lower the signal
Calls of active or inactive are those of the source. Rule for the calls: active = hit-call score of the fitted dose curve at least 0.9, where 1 is the maximum; inactive = score below 0.9.
Possible outcomes: active, inactive

> print(dat)
                            compound.string  label.value
1                  CN1C(=O)CC[C@H]1c1cccnc1     inactive
2             O=C(O)c1ccccc1C(=O)OCc1ccccc1     inactive
3  COc1ccc2cc(S(=O)(=O)N[C@H](CC(=O)N[C@H](Cc3ccc(CN4[C@H](C)CCC[C@@H]4C)cc3)C(=O)N(C)C(C)C)c3ccc4c(c3)OCO4)ccc2c1       active
4  CCN(Cc1cccc(S(=O)(=O)O)c1)c1ccc(C(=C2C=CC(=[N+](CC)Cc3cccc(S(=O)(=O)O)c3)C=C2)c2ccccc2S(=O)(=O)[O-])cc1     inactive

----------
Assay remarks: CCTE_Shafer_MEA_acute_network_burst_percentage: CCTE's Neural Acute Assay for Percentage of Network Bursts, Shafer Lab (AID 2284022);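 note: curves fitted for loss so actives lower network burst percentage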
Active and inactive are the calls of the source. How the source made its calls: active means hit-call score of the fitted dose curve at least 0.9, where 1 is the maximum; inactive means score below 0.9.
Possible outcomes: y (active), n (inactive)

> print(dat)
                                    molecule  label.value
 1  Cc1cn([C@H]2C[C@H](N=[N+]=[N-])[C@@H](CO)O2)c(=O)[nH]c1=O            n
 2  CC(C)(c1cc(Br)c(O)c(Br)c1)c1cc(Br)c(O)c(Br)c1            n
 3  NCc1cccc(C2CCN(C(=O)c3ccc(C#Cc4ccccc4F)o3)CC2)c1            y
 4  COc1cccc([C@H](O)C2CCN(CCc3ccc(F)cc3)CC2)c1OC            n
 5  CC(=O)N1CCN(c2ccc(OC[C@H]3CO[C@](Cn4ccnc4)(c4ccc(Cl)cc4Cl)O3)cc2)CC1            n
 6  C[C@]12CC[C@@H]3c4ccc(O)cc4CC[C@H]3[C@@H]1CC[C@H]2O            n
 7                     CCCCOC(=O)c1ccc(O)cc1            n
 8           O=C1O[C@H]([C@@H](O)CO)C(O)=C1O            n
 9                          c1ccc2n[nH]nc2c1            n
10  CN(C)c1ccc(C(=C2C=CC(=[N+](C)C)C=C2)c2ccc(N(C)C)cc2)cc1            y
11                             CCCCCCCCCCCCO            y
12                  CN1C(=O)CC[C@H]1c1cccnc1            n
13  CN(C[C@@H](CC[N+]12CCC(C3CCCCC3)(CC1)CC2)c1ccc(Cl)c(Cl)c1)C(=O)c1cc(C(F)(F)F)cc(C(F)(F)F)c1            y
14  CN(C)C(=O)C1(N2CCCCC2)CCN(CC[C@@]2(c3ccc(Cl)c(Cl)c3)CN(C(=O)c3ccccc3)CCO2)CC1            y
15    Clc1ccccc1C(c1ccccc1)(c1ccccc1)n1ccnc1            y
16           CCCCCCCCOC(=O)c1cc(O)c(O)c(O)c1            y
17  Cc1cc2c(cc1C(F)(F)F)N(C(=O)Nc1ccc(Oc3cccnc3C)nc1)CC2            n
18              CC1=CC(=O)/C(=C(/C)O)C(=O)O1            n
19        CC(O)CC(C)(C)O (centres undefined)            n

Reference source: PubChem BioAssay (EPA / NIEHS)
